TESTED SYSTEM: T1, human KLK5 (human, UniProt Q9Y337 67-293)
T1 construct: also called huKLK5; KLK5 AMC
T1 sequence: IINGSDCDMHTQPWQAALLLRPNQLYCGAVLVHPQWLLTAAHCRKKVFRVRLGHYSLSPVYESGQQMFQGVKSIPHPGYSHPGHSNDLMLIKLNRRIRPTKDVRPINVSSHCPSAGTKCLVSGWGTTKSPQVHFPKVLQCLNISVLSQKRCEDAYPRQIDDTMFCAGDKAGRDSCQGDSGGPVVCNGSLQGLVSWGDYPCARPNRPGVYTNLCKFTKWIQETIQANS
TEST NAME: SPR, one-armed monovalent antibody
Property: Kd; scope: individual binders

Here are 2 binders together with their reported answers.
[
  {
    "BINDER": "OA.hu.10C5.N53V.S34K.F92Y (antibody, V domains shown, One-armed (OA) monovalent anti-KLK5 antibody with a human IgG1 Fc, with Q38E/Q39K; constant regions and dummy Fc chain not specified) VH: EVQLVESGGGLVQPGGSLRLSCAASGFSLSSYGVTWVRKAPGKGLEWIGYITSVYGVSYYASWAKSRSTISRDTSKNTVYLQMGSLRAEDMAVYYCARENPDYGYAYDAWGQGTTVTVSS VL: AIRMTQSPSSFSASTGDRVTITCQASESISNELKWYQEKPGKAPKLLIYYASTLASGVPSRFSGSGSGTDFTLTISSLQPEDFATYYCAQGYGSSGVENVFGGGTKVEIK",
    "Kd": "< 0.334 pM"
  },
  {
    "BINDER": "OA.hu.10C5.N53V.S34K.S95F (antibody, V domains shown, One-armed (OA) monovalent anti-KLK5 antibody with a human IgG1 Fc, with Q38E/Q39K; constant regions and dummy Fc chain not specified) VH: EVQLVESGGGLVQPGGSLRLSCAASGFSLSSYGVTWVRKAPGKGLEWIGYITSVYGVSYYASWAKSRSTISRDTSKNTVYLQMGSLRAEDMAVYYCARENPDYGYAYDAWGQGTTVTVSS VL: AIRMTQSPSSFSASTGDRVTITCQASESISNELKWYQEKPGKAPKLLIYYASTLASGVPSRFSGSGSGTDFTLTISSLQPEDFATYYCAQGFGSFGVENVFGGGTKVEIK",
    "Kd": "< 0.235 pM"
  }
]

# input for lookup
Lab note: OA.hu.10C5.N53V.F92Y (antibody, V domains shown, One-armed (OA) monovalent anti-KLK5 antibody with a human IgG1 Fc, with Q38E/Q39K; constant regions and dummy Fc chain not specified) VH: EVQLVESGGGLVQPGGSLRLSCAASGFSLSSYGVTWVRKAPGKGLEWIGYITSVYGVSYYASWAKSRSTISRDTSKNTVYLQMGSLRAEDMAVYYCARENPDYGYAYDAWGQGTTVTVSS VL: AIRMTQSPSSFSASTGDRVTITCQASESISNELSWYQEKPGKAPKLLIYYASTLASGVPSRFSGSGSGTDFTLTISSLQPEDFATYYCAQGYGSSGVENVFGGGTKVEIK gave Kd of 3.82 pM
